All figures here come from patent US5278184A.

test system: different rhinoviruses serotypes; assay: Protection of HeLa cells from rhinovirus-induced cytopathogenicity (MTT), all serotypes of Table 3; details: Enterovirus, HeLa, 72 h, read-out: MIC, summary over the serotypes
Exercise: state measured pEC50 for each of the molecules provided.
Give bare numbers, as −log10 of the molar value.

I have 6 molecules here; please give me pEC50 for each one.
1. Cc1csc(C(=O)CCCCOc2ccc(C3=NCCO3)cc2)c1 [Compound 529]
2. CCOC(=O)c1ccc(OCCCCC(=O)c2ccc(Cl)s2)cc1 [Compound 360]
3. Cc1ccc(C(=O)CCCCOc2ccc(C3=NCCO3)cc2)s1 [Compound 522]
4. Cc1cc(CCCCCCCOc2ccc(C3=NCCO3)cc2)on1 [WIN 51711, reference compound]
5. CCOC(=O)c1ccc(OCCCCC(=O)c2cc(C=O)n(C)c2)cc1 [Compound 393]
6. CCOC(=O)c1ccc(OCCCCC(=O)c2ccc(C)s2)cc1 [Compound 514]

Given back:
1. 5.39
2. 6.12
3. 5.70
4. 5.92
5. 5.85
6. 6.20

====

test system: rhinovirus serotype 21; experiment: Protection of HeLa cells from rhinovirus-induced cytopathogenicity (MTT), serotype 21; conditions: Enterovirus, 72 h, read-out: MIC, serotype 21
pEC50: −log10 of the molar value.
Classification field: class 1 = pEC50 at or over 6; class 0 = pEC50 under 6.

compound	category
Cc1csc(C(=O)CCCCOc2ccc(C3=NCCO3)cc2)c1	class 0
CCOC(=O)c1ccc(OCCCCC(=O)c2ccc(C)s2)cc1	class 1
CCOC(=O)c1ccc(OCCCCC(=O)c2cc(C=O)n(C)c2)cc1	class 0
Cc1ccc(C(=O)CCCCOc2ccc(C3=NCCO3)cc2)s1	class 0

Asked: Has Cc1cc(CCCCCCCOc2ccc(C3=NCCO3)cc2)on1 [WIN 51711, reference compound] a recorded pEC50 greater than or equal to 6?
Given back: class 1

====

test: in vitro; settings: human, hela cells
test readout: MNTC

compound	MNTC
CCOC(=O)c1ccc(OCCCCC(=O)c2ccc(C)s2)cc1 [Compound 514]	> 578 µM
Cn1cccc1C(=O)CCCCOc1ccc(C2=NCCO2)cc1 [Compound 414]	> 610 µM
Cn1cc(C(=O)CCCCOc2ccc(C(=O)O)cc2)cc1C=O [Compound 394]	> 610 µM
Cc1ccc(C(=O)CCCCOc2ccc(C3=NCCO3)cc2)s1 [Compound 522]	> 291 µM

I have 4 compounds here; please give me MNTC for each one.
1. CCOC(=O)c1ccc(OCCCCC(=O)c2ccc(Cl)s2)cc1 [Compound 360]
2. Cn1cc(C(=O)CCCCOc2ccc(C3=NCCO3)cc2)cc1C=O [Compound 395]
3. Cc1csc(C(=O)CCCCOc2ccc(C3=NCCO3)cc2)c1 [Compound 529]
4. O=C(CCCCOc1ccc(C2=NCCO2)cc1)c1ccc(Cl)s1 [Compound 366]

Given back:
> 545 µM
> 425 µM
291 µM
> 410 µM

Asked: Read the entry CCOC(=O)c1ccc(OCCCCC(=O)c2cc(C=O)n(C)c2)cc1 [Compound 393] and write its reported MNTC.
Given back: 50 µM

====

Exercise: state measured pEC50 for each of the molecules provided.
tested on: rhinovirus serotype 22; experiment: Protection of HeLa cells from rhinovirus-induced cytopathogenicity (MTT), serotype 22; conditions: Enterovirus, 72 h, read-out: MIC, serotype 22
Answers are plain numbers, as −log10 of the molar value.

molecule	study target	pEC50
CCOC(=O)c1ccc(OCCCCC(=O)c2cc(C=O)n(C)c2)cc1	rhinovirus serotype 22	5.96
CCOC(=O)c1ccc(OCCCCC(=O)c2ccc(C)s2)cc1	rhinovirus serotype 22	5.85
Cc1ccc(C(=O)CCCCOc2ccc(C3=NCCO3)cc2)s1	rhinovirus serotype 22	4.94
Cc1cc(CCCCCCCOc2ccc(C3=NCCO3)cc2)on1 [WIN 51711, reference compound]	rhinovirus serotype 22	5.46
CCOC(=O)c1ccc(OCCCCC(=O)c2ccc(Cl)s2)cc1	rhinovirus serotype 22	5.85

Consider the additional molecule presented here.
Asked: Read the entry "Cc1csc(C(=O)CCCCOc2ccc(C3=NCCO3)cc2)c1" and write its reported pEC50.
Given back: 4.94

====

tested on: HRV-14; test: Viral plaque reduction, HRV-14 on HeLa cells; format: cell-based, human rhinovirus; conditions: Rhinovirus B, HRV14; Table 1 and text; 50% plaque reduction, HeLa cells, 33° C; read-out: MIC, HRV-14
test readout: EC50 (nM)
Give bare numbers, in nM.

Study these solved cases before continuing.
line notation	experimental value
CCOC(=O)c1ccc(OCCCCC(=O)c2ccc(Cl)s2)cc1	2000
O=C(CCCCOc1ccc(C2=NCCO2)cc1)c1ccc(Cl)s1	50
Cn1cc(C(=O)CCCCOc2ccc(C3=NCCO3)cc2)cc1C=O	5000
Cn1cc(C(=O)CCCCOc2ccc(C(=O)O)cc2)cc1C=O	7000

Consider the additional compound presented here.
Asked: Please respond with reported EC50 (system HRV-14) for "Cn1cccc1C(=O)CCCCOc1ccc(C2=NCCO2)cc1" .
Given back: 800
